- Experimental system: Mu opioid receptor (MOR) (Homo sapiens); also: unit not given here
- Sequence (P35372 whole entry): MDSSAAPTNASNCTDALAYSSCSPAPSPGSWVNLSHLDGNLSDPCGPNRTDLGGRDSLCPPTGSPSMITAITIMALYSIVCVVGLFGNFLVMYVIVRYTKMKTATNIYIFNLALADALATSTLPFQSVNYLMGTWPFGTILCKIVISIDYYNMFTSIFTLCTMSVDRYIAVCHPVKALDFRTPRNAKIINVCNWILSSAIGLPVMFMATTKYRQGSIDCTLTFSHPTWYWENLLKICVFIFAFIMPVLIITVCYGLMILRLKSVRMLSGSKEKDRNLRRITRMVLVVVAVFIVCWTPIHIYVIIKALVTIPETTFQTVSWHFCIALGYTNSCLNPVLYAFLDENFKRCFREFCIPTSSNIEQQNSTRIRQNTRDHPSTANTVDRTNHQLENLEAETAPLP
- Protocol details: cell-based
- Type: cell-based
Square brackets hold non-standard residues; d marks the D form. Peptide text beside a SMILES is read from it. Phe(4-NO2) = N[C@@H](Cc1ccc([N+](=O)[O-])cc1)C(=O)O; Phe(4-Cl) = N[C@@H](Cc1ccc(Cl)cc1)C(=O)O; Sar = CNCC(=O)O
Measured endpoint: cAMP assay MOR 10 μM

compound="CC(C)C[C@H](NC(=O)[C@H](Cc1ccccc1)NC(=O)CN(C)C(=O)[C@@H](N)Cc1ccc(O)cc1)C(=O)N[C@@H](CCCNC(=N)N)C(=O)N[C@H](CCCNC(=N)N)C(N)=O [SEQ ID NO. 3, NH2-Tyr-Sar-Phe-Leu-Arg-DArg-NH2] (H-Y[Sar]FLR[dR]-NH2)" measured_endpoint="cAMP assay MOR 10 μM" observed_result=2.17
compound="CC(C)C[C@H](NC(=O)[C@H](Cc1ccc([N+](=O)[O-])cc1)NC(=O)CN(C)C(=O)[C@@H](N)Cc1ccc(O)cc1)C(=O)N[C@@H](CCCNC(=N)N)C(=O)N[C@H](CCCNC(=N)N)C(N)=O [SEQ ID NO. 4, NH2-Tyr-Sar-(4-NO2)Phe-Leu-Arg-DArg-NH2] (H-Y[Sar][Phe(4-NO2)]LR[dR]-NH2)" measured_endpoint="cAMP assay MOR 10 μM" observed_result=2.52
compound="CC(C)C[C@H](NC(=O)[C@H](Cc1ccc(Cl)cc1)NC(=O)CN(C)C(=O)[C@@H](N)Cc1ccc(O)cc1)C(=O)N[C@@H](CCCNC(=N)N)C(=O)N[C@H](CCCNC(=N)N)C(N)=O [SEQ ID NO. 11, NH2-Tyr-Sar-(4-Cl)Phe-Leu-Arg-DArg-NH2] (H-Y[Sar][Phe(4-Cl)]LR[dR]-NH2)" measured_endpoint="cAMP assay MOR 10 μM" observed_result=1.37
compound="CC(C)C[C@H](NC(=O)[C@H](Cc1ccccc1)NC(=O)CN(C)C(=O)[C@@H](N)Cc1ccc(O)cc1)C(=O)N[C@H](CCCNC(=N)N)C(=O)N[C@@H](CCCNC(=N)N)C(N)=O [SEQ ID NO. 6, NH2-Tyr-Sar-Phe-Leu-DArg-Arg-NH2] (H-Y[Sar]FL[dR]R-NH2)" measured_endpoint="cAMP assay MOR 10 μM" observed_result=7.84

----------
- Experimental system: Delta opioid receptor (DOR) (Homo sapiens, UniProt P41143); also: unit not given here
- Sequence (P41143 whole entry): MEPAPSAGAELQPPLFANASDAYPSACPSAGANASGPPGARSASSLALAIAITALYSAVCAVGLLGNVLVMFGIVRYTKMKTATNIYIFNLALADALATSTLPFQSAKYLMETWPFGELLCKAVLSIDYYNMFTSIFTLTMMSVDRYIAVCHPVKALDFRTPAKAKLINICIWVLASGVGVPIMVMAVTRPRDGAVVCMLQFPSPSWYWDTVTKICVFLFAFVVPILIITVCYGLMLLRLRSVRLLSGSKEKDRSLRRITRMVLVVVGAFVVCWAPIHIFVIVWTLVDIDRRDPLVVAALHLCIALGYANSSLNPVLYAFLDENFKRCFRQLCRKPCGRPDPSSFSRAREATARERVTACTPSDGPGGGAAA
- Protocol details: cell-based
- Type: cell-based
Square brackets hold non-standard residues; d marks the D form. Peptide text beside a SMILES is read from it. Phe(4-NO2) = N[C@@H](Cc1ccc([N+](=O)[O-])cc1)C(=O)O; Phe(4-Cl) = N[C@@H](Cc1ccc(Cl)cc1)C(=O)O; Sar = CNCC(=O)O
Kind request: treat -0.7 as inclusive, so cAMP assay DOR 1 μM at -0.7 or higher is MET, anything lower is NOT MET.

compound="CC(C)C[C@H](NC(=O)[C@H](Cc1ccc([N+](=O)[O-])cc1)NC(=O)CN(C)C(=O)[C@@H](N)Cc1ccc(O)cc1)C(=O)N[C@@H](CCCNC(=N)N)C(=O)N[C@H](CCCNC(=N)N)C(N)=O [SEQ ID NO. 4, NH2-Tyr-Sar-(4-NO2)Phe-Leu-Arg-DArg-NH2] (H-Y[Sar][Phe(4-NO2)]LR[dR]-NH2)" assigned_class="NOT MET"
compound="CC(C)C[C@H](NC(=O)[C@H](Cc1ccc([N+](=O)[O-])cc1)NC(=O)CN(C)C(=O)[C@@H](N)Cc1ccc(O)cc1)C(=O)N[C@H](CCCNC(=N)N)C(=O)N[C@@H](CCCNC(=N)N)C(N)=O [SEQ ID NO. 5, NH2-Tyr-Sar-(4-NO2)Phe-Leu-DArg-Arg-NH2] (H-Y[Sar][Phe(4-NO2)]L[dR]R-NH2)" assigned_class=MET
compound="CC(C)C[C@H](NC(=O)[C@H](Cc1ccccc1)NC(=O)CN(C)C(=O)[C@@H](N)Cc1ccc(O)cc1)C(=O)N[C@@H](CCCNC(=N)N)C(=O)N[C@@H](CCCNC(=N)N)C(N)=O [SEQ ID NO. 2, NH2-Tyr-Sar-Phe-Leu-Arg-Arg-NH2] (H-Y[Sar]FLRR-NH2)" assigned_class=MET
compound="CC(C)C[C@H](NC(=O)[C@H](Cc1ccccc1)NC(=O)CN(C)C(=O)[C@@H](N)Cc1ccc(O)cc1)C(=O)N[C@H](CCCNC(=N)N)C(=O)N[C@@H](CCCNC(=N)N)C(N)=O [SEQ ID NO. 6, NH2-Tyr-Sar-Phe-Leu-DArg-Arg-NH2] (H-Y[Sar]FL[dR]R-NH2)" assigned_class=MET
compound="CC(C)C[C@H](NC(=O)[C@H](Cc1ccc(Cl)cc1)NC(=O)CN(C)C(=O)[C@@H](N)Cc1ccc(O)cc1)C(=O)N[C@@H](CCCNC(=N)N)C(=O)N[C@H](CCCNC(=N)N)C(N)=O [SEQ ID NO. 11, NH2-Tyr-Sar-(4-Cl)Phe-Leu-Arg-DArg-NH2] (H-Y[Sar][Phe(4-Cl)]LR[dR]-NH2)" assigned_class="NOT MET"
compound="CC(C)C[C@@H](NC(=O)[C@@H](Cc1ccccc1)NC(=O)[C@H](N)Cc1ccccc1)C(=O)N[C@H](CCCCN)C(=O)N1CCC(N)(C(=O)O)CC1 [SEQ ID NO. 35, DPhe-DPhe-DLeu-DLys-Cap-CO2H, reference compound]" assigned_class="NOT MET"
compound="CC(C)C[C@H](NC(=O)[C@H](Cc1ccccc1)NC(=O)CN(C)C(=O)[C@@H](N)Cc1ccc(O)cc1)C(=O)N[C@@H](CCCNC(=N)N)C(=O)N[C@H](CCCNC(=N)N)C(N)=O [SEQ ID NO. 3, NH2-Tyr-Sar-Phe-Leu-Arg-DArg-NH2] (H-Y[Sar]FLR[dR]-NH2)" assigned_class="NOT MET"
